# assayedSystem: cAMP-dependent protein kinase catalytic subunit alpha (Homo sapiens, UniProt P17612); note: in the data inactive means no Kd found up to 30 µM
The source made the active and inactive calls.
Write down the outcome that applies. Available outcomes: active, inactive

Completed entries (count: 6):
C=CC(=O)N1CCC[C@H](n2c(=O)n(-c3ccc(Oc4ccccc4)cc3)c3c(N)ncnc32)C1: inactive
COc1c(OCCCN2CCOCC2)ccc2c1N=C(NC(=O)c1cnc(N)nc1)N1CCN=C21: inactive
O=C(Nc1c[nH]nc1-c1nc2cc(CN3CCOCC3)ccc2[nH]1)NC1CC1: active
Cc1nc(Nc2n[nH]c3c2CN(C(=O)N[C@H](CN(C)C)c2ccccc2)C3(C)C)c2sccc2n1: active
Cc1cc(Nc2ncnc3ccc(NC4=NC(C)(C)CO4)cc23)ccc1Oc1ccn2ncnc2c1: inactive
COCc1c(-c2ccc(NC(=O)Nc3cc(C(F)(F)F)ccc3F)c(F)c2)c2c(N)ncnn2c1CN1CCOCC1: inactive

Incoming: What did this assay record as the result for CO[C@H]1C[C@@H]2CC[C@@H](C)[C@@](O)(O2)C(=O)C(=O)N2CCCC[C@H]2C(=O)O[C@H]([C@H](C)C[C@@H]2CC[C@@H](O)[C@H](OC)C2)CC(=O)[C@H](C)/C=C(\C)[C@@H](O)[C@@H](OC)C(=O)[C@H](C)C[C@H](C)/C=C/C=C/C=C/1C ?
Outgoing: inactive

----------
The source made the active and inactive calls.
Below are Kd values measured for Interleukin-1 receptor-associated kinase 1 (Homo sapiens).

Solved cases (3 shown):
Cc1cc(Nc2ncnc3ccc(NC4=NC(C)(C)CO4)cc23)ccc1Oc1ccn2ncnc2c1: > 30 µM (inactive)
C=CC(=O)N1CCC[C@H](n2c(=O)n(-c3ccc(Oc4ccccc4)cc3)c3c(N)ncnc32)C1: > 30 µM (inactive)
O=c1[nH]ccc2cc(OC3CCNCC3)ccc12 [SAR-407899 FREE BASE]: > 30 µM (inactive)

Turning to the following compound.
Incoming: Would you please give the reported Kd of C[C@@H](NC(=O)c1ncnc(N)c1Cl)c1ncc(C(=O)Nc2cc(C(F)(F)F)c(Cl)cn2)s1 with Interleukin-1 receptor-associated kinase 1 (Homo sapiens)?
Outgoing: > 30 µM (inactive)

----------
# assayedSystem: Ribosomal protein S6 kinase alpha-3 (Homo sapiens); note: in the data inactive means no Kd found up to 30 µM
# Sequence (P51812 whole entry): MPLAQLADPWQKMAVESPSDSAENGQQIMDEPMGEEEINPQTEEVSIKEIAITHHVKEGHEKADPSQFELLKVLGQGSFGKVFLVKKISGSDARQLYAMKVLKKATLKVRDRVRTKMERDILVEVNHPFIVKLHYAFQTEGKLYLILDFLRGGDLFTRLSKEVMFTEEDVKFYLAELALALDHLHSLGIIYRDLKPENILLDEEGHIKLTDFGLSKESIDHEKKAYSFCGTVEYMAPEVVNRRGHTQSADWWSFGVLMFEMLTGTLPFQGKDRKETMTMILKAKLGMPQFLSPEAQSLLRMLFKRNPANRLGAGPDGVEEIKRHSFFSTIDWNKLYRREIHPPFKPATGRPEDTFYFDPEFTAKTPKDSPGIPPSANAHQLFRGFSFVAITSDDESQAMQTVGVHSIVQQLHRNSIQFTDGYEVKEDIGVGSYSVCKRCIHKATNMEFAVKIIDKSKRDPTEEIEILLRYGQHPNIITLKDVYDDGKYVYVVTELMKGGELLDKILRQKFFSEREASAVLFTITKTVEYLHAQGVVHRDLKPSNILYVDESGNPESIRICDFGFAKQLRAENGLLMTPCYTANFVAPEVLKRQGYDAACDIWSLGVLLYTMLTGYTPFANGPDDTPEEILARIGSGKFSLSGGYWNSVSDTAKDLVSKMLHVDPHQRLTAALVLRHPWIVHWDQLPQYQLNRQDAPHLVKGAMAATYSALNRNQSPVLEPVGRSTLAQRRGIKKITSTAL
Activity calls are given as the source filed them.
Write down the outcome that applies. Available outcomes: active, inactive

Completed entries (count: 3):
N#CC1(c2ccc(NC(=O)c3cccnc3NCc3ccncc3)cc2)CCCC1: inactive
COc1ccc(S(=O)(=O)N(C(C)=O)c2ccccc2/C=C/c2cc[n+]([O-])cc2)cc1: inactive
CN(C[C@@H]1COCCO1)S(=O)(=O)Nc1ccc2ccc3ncc(-c4cnn(C)c4)cc3c(=O)c2c1: inactive

Incoming: What did this assay record as the result for CNC(=O)c1cccc2cc(Oc3ccnc4cc(OCC5(N)CC5)c(OC)cc34)ccc12 ?
Outgoing: inactive

Incoming: What did this assay record as the result for CN1CCN(CCOc2cc(OC3CCOCC3)c3c(Nc4c(Cl)ccc5c4OCO5)ncnc3c2)CC1 ?
Outgoing: inactive

Incoming: What did this assay record as the result for NC(=O)Nc1cc(-c2cccc(F)c2)sc1C(=O)N[C@H]1CCCNC1 ?
Outgoing: inactive

Incoming: What did this assay record as the result for COc1ncc(-c2ccc3nccc(-c4ccnnc4)c3c2)cc1NS(=O)(=O)c1ccc(F)cc1F ?
Outgoing: inactive

Incoming: What did this assay record as the result for C[C@@H](Oc1cc(C(=O)Nc2ccc(C(=O)N3CCN(C)CC3)cc2)nnc1N)c1c(Cl)ccc(F)c1Cl ?
Outgoing: inactive

----------
The entries below come with measured Kd values attached.
# assayedSystem: Serine/threonine-protein kinase N1 (Homo sapiens, UniProt Q16512); note: in the data inactive means no Kd found up to 30 µM
# Sequence (Q16512 whole entry): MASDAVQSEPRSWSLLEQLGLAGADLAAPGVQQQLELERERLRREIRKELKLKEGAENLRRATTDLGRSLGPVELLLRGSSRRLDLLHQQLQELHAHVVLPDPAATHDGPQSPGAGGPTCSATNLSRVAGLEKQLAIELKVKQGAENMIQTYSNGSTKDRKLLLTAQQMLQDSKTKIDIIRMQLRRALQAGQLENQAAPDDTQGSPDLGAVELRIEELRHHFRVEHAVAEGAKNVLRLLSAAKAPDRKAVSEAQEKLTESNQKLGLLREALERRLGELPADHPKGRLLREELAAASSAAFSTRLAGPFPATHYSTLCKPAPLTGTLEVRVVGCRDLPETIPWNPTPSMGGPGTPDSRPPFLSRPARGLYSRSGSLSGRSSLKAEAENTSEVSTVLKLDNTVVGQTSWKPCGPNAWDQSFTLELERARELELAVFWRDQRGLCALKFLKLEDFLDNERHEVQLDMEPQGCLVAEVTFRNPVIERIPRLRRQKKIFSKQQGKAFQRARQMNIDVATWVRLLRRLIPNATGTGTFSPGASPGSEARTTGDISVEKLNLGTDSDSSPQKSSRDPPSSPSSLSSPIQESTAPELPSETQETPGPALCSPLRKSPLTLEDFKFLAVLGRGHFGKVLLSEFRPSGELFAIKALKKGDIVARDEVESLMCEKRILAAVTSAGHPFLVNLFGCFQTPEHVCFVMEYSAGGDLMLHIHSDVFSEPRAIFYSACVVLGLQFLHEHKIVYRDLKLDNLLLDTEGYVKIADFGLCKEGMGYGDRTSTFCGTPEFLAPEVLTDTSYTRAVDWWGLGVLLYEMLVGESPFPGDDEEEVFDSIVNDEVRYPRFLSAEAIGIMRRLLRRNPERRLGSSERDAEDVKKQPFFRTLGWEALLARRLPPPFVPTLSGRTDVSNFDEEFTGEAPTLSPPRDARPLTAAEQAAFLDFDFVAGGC
Active and inactive are the calls of the source.

Solved cases (2 shown):
CCS(=O)(=O)c1cccc(-c2cc(C(=O)NC3CCN(C)CC3)c(C)c3[nH]c4ncc(C)cc4c23)c1: 2980 nM (active)
CC(=O)c1cnc2ccc(-c3cc(Cl)c(O)c(Cl)c3)nc2c1N[C@H]1CC[C@H](CN(C)C)CC1: 244 nM (active)

Incoming: Would you please give the reported Kd of C[C@@H](N)c1ccc(C(=O)Nc2ccnc3[nH]ccc23)cc1 with Serine/threonine-protein kinase N1 (Homo sapiens, UniProt Q16512)?
Outgoing: 253 nM (active)

----------
The entries below come with measured Kd values attached.
# assayedSystem: Ras-related protein Rab-6A (Homo sapiens); note: in the data inactive means no Kd found up to 30 µM
# Sequence (P20340 whole entry): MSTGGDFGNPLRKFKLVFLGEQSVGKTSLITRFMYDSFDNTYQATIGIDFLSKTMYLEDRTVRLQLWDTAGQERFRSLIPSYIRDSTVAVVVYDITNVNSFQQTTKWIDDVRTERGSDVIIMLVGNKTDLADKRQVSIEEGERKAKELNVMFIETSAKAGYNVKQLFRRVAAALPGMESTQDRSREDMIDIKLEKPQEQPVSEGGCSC
Active and inactive are the calls of the source.

Incoming: Give the reported Kd for this compound. Cc1nc(NC(=O)N2CCC[C@H]2C(N)=O)sc1-c1ccnc(C(C)(C)C(F)(F)F)c1
Outgoing: > 30 µM (inactive)

Incoming: Give the reported Kd for this compound. CO[C@H]1C[C@@H]2CC[C@@H](C)[C@@](O)(O2)C(=O)C(=O)N2CCCC[C@H]2C(=O)O[C@H]([C@H](C)C[C@@H]2CC[C@@H](OP(C)(C)=O)[C@H](OC)C2)CC(=O)[C@H](C)/C=C(\C)[C@@H](O)[C@@H](OC)C(=O)[C@H](C)C[C@H](C)/C=C/C=C/C=C/1C
Outgoing: > 30 µM (inactive)

----------
# assayedSystem: RNA cytidine acetyltransferase (Homo sapiens, UniProt Q9H0A0); note: in the data inactive means no Kd found up to 30 µM
# Sequence (Q9H0A0 whole entry): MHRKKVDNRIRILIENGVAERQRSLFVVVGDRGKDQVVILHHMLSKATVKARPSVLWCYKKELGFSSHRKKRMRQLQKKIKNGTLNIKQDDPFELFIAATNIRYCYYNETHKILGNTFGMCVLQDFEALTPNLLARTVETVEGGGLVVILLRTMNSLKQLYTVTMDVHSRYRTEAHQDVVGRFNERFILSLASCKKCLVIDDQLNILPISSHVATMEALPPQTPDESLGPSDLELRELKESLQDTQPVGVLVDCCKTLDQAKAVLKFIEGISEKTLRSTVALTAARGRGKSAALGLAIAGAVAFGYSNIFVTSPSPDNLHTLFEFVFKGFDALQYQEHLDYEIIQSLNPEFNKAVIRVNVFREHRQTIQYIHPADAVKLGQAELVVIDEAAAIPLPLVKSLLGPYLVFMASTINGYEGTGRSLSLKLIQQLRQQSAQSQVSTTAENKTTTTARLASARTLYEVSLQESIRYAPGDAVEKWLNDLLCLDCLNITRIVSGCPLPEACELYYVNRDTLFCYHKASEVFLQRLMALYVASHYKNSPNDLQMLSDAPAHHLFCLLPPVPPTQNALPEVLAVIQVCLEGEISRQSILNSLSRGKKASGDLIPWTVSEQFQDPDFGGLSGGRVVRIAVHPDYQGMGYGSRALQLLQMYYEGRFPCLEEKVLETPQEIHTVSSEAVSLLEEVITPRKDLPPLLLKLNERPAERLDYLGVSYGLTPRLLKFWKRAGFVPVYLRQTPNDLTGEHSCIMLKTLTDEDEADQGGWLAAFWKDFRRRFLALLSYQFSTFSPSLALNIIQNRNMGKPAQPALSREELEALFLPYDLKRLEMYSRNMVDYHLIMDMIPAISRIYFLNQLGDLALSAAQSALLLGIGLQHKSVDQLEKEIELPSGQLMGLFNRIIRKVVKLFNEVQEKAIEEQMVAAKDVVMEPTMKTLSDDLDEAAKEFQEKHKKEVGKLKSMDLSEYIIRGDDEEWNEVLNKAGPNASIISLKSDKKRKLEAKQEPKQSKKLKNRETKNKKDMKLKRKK
Active and inactive are the calls of the source.
endpointName: Kd

Solved cases (3 shown):
CO[C@H]1C[C@@H]2CC[C@@H](C)[C@@](O)(O2)C(=O)C(=O)N2CCCC[C@H]2C(=O)O[C@H]([C@H](C)C[C@@H]2CC[C@@H](O)[C@H](OC)C2)CC(=O)[C@H](C)/C=C(\C)[C@@H](O)[C@@H](OC)C(=O)[C@H](C)C[C@H](C)/C=C/C=C/C=C/1C [SIROLIMUS]: > 30 µM (inactive)
N#CC1(c2ccc(NC(=O)c3cccnc3NCc3ccncc3)cc2)CCCC1 [RIVOCERANIB]: > 30 µM (inactive)
O=C(Nc1cc(C(F)(F)F)cc(C(F)(F)F)c1)c1cc(Cl)ccc1O [IMD-0354]: > 30 µM (inactive)

Incoming: Give the reported Kd for this compound. CO[C@H]1C[C@@H]2CC[C@@H](C)[C@@](O)(O2)C(=O)C(=O)N2CCCC[C@H]2C(=O)O[C@H]([C@H](C)C[C@@H]2CC[C@@H](OP(C)(C)=O)[C@H](OC)C2)CC(=O)[C@H](C)/C=C(\C)[C@@H](O)[C@@H](OC)C(=O)[C@H](C)C[C@H](C)/C=C/C=C/C=C/1C [RIDAFOROLIMUS]
Outgoing: > 30 µM (inactive)

Incoming: Give the reported Kd for this compound. Cc1[nH]c(/C=C2\C(=O)Nc3ccccc32)c(C)c1CCC(=O)O [ORANTINIB]
Outgoing: 1.24 µM

----------
# assayedSystem: Ephrin type-A receptor 1 (Homo sapiens, UniProt P21709); note: in the data inactive means no Kd found up to 30 µM
# Sequence (P21709 whole entry): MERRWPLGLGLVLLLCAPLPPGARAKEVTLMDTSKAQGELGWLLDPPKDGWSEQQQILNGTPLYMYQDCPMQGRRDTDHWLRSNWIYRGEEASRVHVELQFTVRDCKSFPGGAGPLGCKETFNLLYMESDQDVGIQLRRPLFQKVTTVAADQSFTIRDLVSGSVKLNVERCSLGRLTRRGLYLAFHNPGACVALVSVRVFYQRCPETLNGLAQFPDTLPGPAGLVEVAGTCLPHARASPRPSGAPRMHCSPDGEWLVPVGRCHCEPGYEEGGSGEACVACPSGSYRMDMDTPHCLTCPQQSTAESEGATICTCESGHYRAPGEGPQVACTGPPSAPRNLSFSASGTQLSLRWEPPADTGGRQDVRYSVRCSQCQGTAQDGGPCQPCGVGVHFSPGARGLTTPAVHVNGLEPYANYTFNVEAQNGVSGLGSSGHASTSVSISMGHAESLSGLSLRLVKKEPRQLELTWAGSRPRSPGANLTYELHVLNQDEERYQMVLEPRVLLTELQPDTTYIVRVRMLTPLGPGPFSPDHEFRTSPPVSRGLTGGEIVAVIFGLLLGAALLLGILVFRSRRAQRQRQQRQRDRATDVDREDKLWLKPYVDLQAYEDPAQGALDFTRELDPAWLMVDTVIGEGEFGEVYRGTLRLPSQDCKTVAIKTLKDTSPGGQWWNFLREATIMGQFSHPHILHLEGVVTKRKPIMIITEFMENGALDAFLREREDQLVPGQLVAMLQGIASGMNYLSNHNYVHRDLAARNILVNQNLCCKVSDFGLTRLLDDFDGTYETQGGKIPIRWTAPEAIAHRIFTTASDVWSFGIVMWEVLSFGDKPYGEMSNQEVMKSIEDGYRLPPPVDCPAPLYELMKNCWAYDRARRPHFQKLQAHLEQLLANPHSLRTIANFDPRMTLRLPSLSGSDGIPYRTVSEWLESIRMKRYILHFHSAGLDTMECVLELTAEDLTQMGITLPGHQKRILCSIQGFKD
Where a name gives a salt, the structure may show the parent alone. Calls of active or inactive are those of the source.
Write down the outcome that applies. Available outcomes: active, inactive

Completed entries (count: 2):
NC1(c2ccc(-c3nc4ccn5c(=O)[nH]nc5c4cc3-c3ccccc3)cc2)CCC1: inactive
CCS(=O)(=O)N1CCN(c2ccc(Nc3ncc(C(N)=O)c(NC4CC4)n3)cc2)CC1 [Cerdulatinib Hydrochloride]: inactive

Incoming: What did this assay record as the result for COc1ccc(S(=O)(=O)N(C(C)=O)c2ccccc2/C=C/c2cc[n+]([O-])cc2)cc1 ?
Outgoing: inactive

Incoming: What did this assay record as the result for CCn1c(C(=O)N(C2CC2)C2CC2)cc2c3c(ncn3C)c(Nc3cc(C)n(C)n3)nc21 ?
Outgoing: inactive

Incoming: What did this assay record as the result for COc1cc([C@@H]2c3cc4c(cc3[C@H](O)[C@H]3COC(=O)[C@@H]23)OCO4)cc(OC)c1OC ?
Outgoing: inactive

Incoming: What did this assay record as the result for Cc1nc(NC(=O)N2CCC[C@H]2C(N)=O)sc1-c1ccnc(C(C)(C)C(F)(F)F)c1 ?
Outgoing: inactive

Incoming: What did this assay record as the result for Cc1cnc(NC(=O)Nc2cc(Br)c(C)cc2OC[C@@H]2CNCCO2)cn1 ?
Outgoing: inactive

Incoming: What did this assay record as the result for CO[C@H]1C[C@@H]2CC[C@@H](C)[C@@](O)(O2)C(=O)C(=O)N2CCCC[C@H]2C(=O)O[C@H]([C@H](C)C[C@@H]2CC[C@@H](OP(C)(C)=O)[C@H](OC)C2)CC(=O)[C@H](C)/C=C(\C)[C@@H](O)[C@@H](OC)C(=O)[C@H](C)C[C@H](C)/C=C/C=C/C=C/1C ?
Outgoing: inactive

Incoming: What did this assay record as the result for CCCCCCCCCCCCCCCCCCOP(=O)([O-])OC1CC[N+](C)(C)CC1 ?
Outgoing: inactive

Incoming: What did this assay record as the result for N#CC1(c2ccc(NC(=O)c3cccnc3NCc3ccncc3)cc2)CCCC1 ?
Outgoing: inactive

Incoming: What did this assay record as the result for Cc1[nH]c(/C=C2\C(=O)Nc3ccccc32)c(C)c1CCC(=O)O [ORANTINIB] ?
Outgoing: inactive

Incoming: What did this assay record as the result for COCC(=O)NC/C=C/c1ccc2ncnc(Nc3ccc(Oc4ccc(C)nc4)c(C)c3)c2c1 ?
Outgoing: inactive

Incoming: What did this assay record as the result for CN(C[C@@H]1COCCO1)S(=O)(=O)Nc1ccc2ccc3ncc(-c4cnn(C)c4)cc3c(=O)c2c1 ?
Outgoing: inactive

Incoming: What did this assay record as the result for CCn1cc(-c2ccnc3[nH]c(-c4cccc(CN(C)C)c4)cc23)c(-c2ccc(NC(=O)N(C)C)cc2)n1 ?
Outgoing: inactive

Incoming: What did this assay record as the result for NC(=O)c1c(OCc2c(F)cc(Br)cc2F)nsc1NC(=O)NCCCCN1CCCC1 ?
Outgoing: inactive

Incoming: What did this assay record as the result for C[C@@H](N)c1ccc(C(=O)Nc2ccnc3[nH]ccc23)cc1 ?
Outgoing: inactive

Incoming: What did this assay record as the result for Nc1ncnc2c1c(-c1cccc(OCc3ccccc3)c1)cn2[C@H]1C[C@@H](CN2CCC2)C1 ?
Outgoing: inactive

Incoming: What did this assay record as the result for Cc1nc(Nc2n[nH]c3c2CN(C(=O)N[C@H](CN(C)C)c2ccccc2)C3(C)C)c2sccc2n1 ?
Outgoing: inactive
